Test: A549 cell viability effects, profiling panel, calcein-AM fluorescence, 48 h, basal (AID 1162); note: test concentration not given here
Details: higher = more signal
Label rule, in plain words: z-score of 0.1 and up is criterion met, under 0.1 is criterion not met.

• CCCNC(=O)[C@@H]1c2ccccc2C(=O)N(C(C)C)[C@H]1c1ccc(CO)cc1 = criterion met
• NCCCCCNC(=O)[C@@H]1C[C@@H]2C(=O)NCC(=O)N2[C@@H]1c1cccc(OCCO)c1 = criterion not met
• COCCCNC(=O)[C@@]1(Sc2ccc(C)cc2)CC(=O)N(C2CCCCC2)[C@@H]1c1ccc(CO)cc1 = criterion not met
• COC(=O)[C@@]1(Cc2ccccc2)[C@H]2c3cc(C(=O)N(C)C)n(CCN4CNCC4=O)c3C[C@H]2CN1C(=O)c1ccccc1 = criterion met
• CN1C(=O)C2C=CC(C(O)c3cccc(O)c3)N(Nc3ccccc3)C2C1=O (stereo not given) = criterion not met

* * *

Assay: small-molecule microarray binders of probe aDKK1, primary screen, biochemical, biotinylated probe, 635/667 nm fluorescence (AID 1099);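 note: score merges 667nm spot fluorescence with signal to noise across triplicate slides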
Details: higher = more signal
REPORTED METRIC: composite z-score

• O=C1c2ccccc2[C@](Cc2ccccc2I)(C(=O)NCC(F)(F)F)[C@H](c2ccc(CO)cc2)N1C1CCCCC1 = 0.663
• CCOC(=O)C[C@H]1[C@H](OC(=O)c2ccccc2-c2ccccc2)[C@@H](NC(=O)c2ccc(-c3ccccc3)cc2)c2cc(OCCCO)ccc2N1C(=O)c1ccc2ccccc2n1 = -0.293
• CCCNC(=O)[C@@H]1c2ccccc2C(=O)N(C(C)C)[C@H]1c1ccc(CO)cc1 = 0.02
• COc1ccc([Si](C)(C)[C@H]2[C@H](CCn3cc([C@H](O)c4ccccc4)nn3)O[C@@]3(C(=O)N(Cc4ccc(N5C(=O)c6cccc7cccc5c67)cc4)c4ccccc43)[C@@H]2C)cc1 = 0.0396

* * *

Target: Albumin (Bos taurus) (UniProt P02769)
Sequence (P02769 whole entry, looked up): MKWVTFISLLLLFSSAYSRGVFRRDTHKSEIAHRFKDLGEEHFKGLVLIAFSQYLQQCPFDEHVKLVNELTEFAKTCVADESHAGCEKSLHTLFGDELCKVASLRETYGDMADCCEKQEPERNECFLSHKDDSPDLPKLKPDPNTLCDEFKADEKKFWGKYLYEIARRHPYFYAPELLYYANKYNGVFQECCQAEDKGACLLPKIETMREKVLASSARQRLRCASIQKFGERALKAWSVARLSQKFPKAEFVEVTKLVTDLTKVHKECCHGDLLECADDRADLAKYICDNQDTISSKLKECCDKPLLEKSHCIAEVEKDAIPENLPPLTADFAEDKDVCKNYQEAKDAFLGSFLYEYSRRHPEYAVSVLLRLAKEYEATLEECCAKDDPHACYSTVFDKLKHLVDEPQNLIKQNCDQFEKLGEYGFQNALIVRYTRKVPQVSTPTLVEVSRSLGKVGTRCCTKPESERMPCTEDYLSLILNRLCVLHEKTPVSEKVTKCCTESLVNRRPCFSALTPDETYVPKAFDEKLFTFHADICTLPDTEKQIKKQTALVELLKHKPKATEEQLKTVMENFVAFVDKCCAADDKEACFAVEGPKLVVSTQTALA
Assay: bovine serum albumin binders on microarray, profiling panel, artefact control for SMM control protein annotation, biochemical, small-molecule microarray, Alexa647 label, 635/667 nm fluorescence (AID 1118);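 note: score merges 667 nm emission intensity and signal-to-noise per printed compound spot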
Conditions: BSA-A647 binding, fluorescence 635 nm, higher = more signal
Label rule, in plain words: composite z-score of 0.6 and up is True, under 0.6 is False.

• COc1cc(OC)c(C(O)C2C=CC3C(=O)N(C)C(=O)C3N2NC(=O)OC(C)(C)C)cc1Br (stereo not given) = True
• O=C1C2C=CC(C(O)c3ccccc3)N(Nc3ccccc3F)C2C(=O)N1c1ccccc1 (stereo not given) = False
• Cc1cc(C)c(C(O)C2C=CC3C(=O)NC(=O)C3N2Nc2ccc(Cl)cc2Cl)c(C)c1 (stereo not given) = True
• C#CCN([C@@H](Cc1ccc(O)cc1)C(=O)OC)[C@@H](/C=C/C1CC1)[C@H](O)Cc1ccccc1 = False

* * *

Test: small-molecule binders of probe aNOTCH3, primary screen, biochemical, small-molecule microarray, 635/667 nm fluorescence (AID 1120);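 note: probe is a biotin-tagged antibody raised against NOTCH3 rather than NOTCH3 protein; score merges spot fluorescence near 667 nm with spot signal to noise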
Conditions: higher = more signal
Could you please classify the records by composite z-score using these ranges: bottom end: < -0.09; midrange: ≥ -0.09 and < 0.09; top end: ≥ 0.09

- COc1ccc(C(O)C2C=CC3C(=O)N(c4ccccc4)C(=O)C3N2Nc2ccc([N+](=O)[O-])cc2)cc1 (stereo unspecified): top end
- Cc1ccccc1C(O)C1C=CC2C(=O)N(C)C(=O)C2N1N(c1ccccc1)c1ccccc1 (stereo unspecified): top end
- O[C@@H](Cc1ccccc1)[C@@H](/C=C/C1CC1)N(CC#Cc1ccccc1)Cc1cccc(Cl)c1: bottom end
- CN(C)C(=O)[C@]1(CCS(=O)(=O)c2ccccc2)N=C(c2ccc(OCCCO)cc2)O[C@@H]1c1ccccc1N=[N+]=[N-]: top end
- COc1ccc(C#Cc2ccc3c(c2)[C@]2(C(=O)N3)[C@H](c3ccc(O)cc3)N3[C@H](c4ccccc4)[C@H](c4ccccc4)OC(=O)[C@H]3[C@@H]2C(=O)O)cc1: top end
- CCOC(=O)C1=CC[C@@H](c2cccc(Cl)c2)N(S(=O)(=O)c2ccc(C)cc2)C1: midrange
- CC(C)(C)OC(=O)CC[C@]1(C(=O)NCC(O)CO)N=C(c2ccc(OCCCO)cc2)O[C@H]1c1ccccc1 (stereo partly specified): midrange
- NCCCCCNC(=O)[C@@H]1C[C@@H]2C(=O)NCC(=O)N2[C@@H]1c1cccc(OCCO)c1: top end
- CC[C@H]1C2=C3C(CC[C@H]4C(OCc5ccc(F)cc5C(F)(F)F)OC[C@](C)([C@@H]34)N(C(=O)OC(C)(C)C)C2)C(COC)C1COC (stereo partly specified): midrange
- CN(C)CCCNC(=O)[C@@H]1c2ccccc2C(=O)N(Cc2ccccc2Cl)[C@H]1c1ccc(CO)cc1: bottom end
- CC1CC/C=C\[C@H]2OC34C=CCN(C(C)C)C(=O)[C@H]3N(CCCCCCO)C(=O)[C@@H]4C2C(=O)O1 (stereo partly specified): bottom end
- O=C1OCCC/C=C\[C@H]2OC34C=CCN(CCN5CCOCC5)C(=O)[C@H]3N(CCCCCCO)C(=O)[C@@H]4C12 (stereo partly specified): bottom end
- CCCCCCc1nc(C2CC2)cc2c1[Si](C(C)C)(C(C)C)O[C@H]2c1ccccc1: midrange
- [N-]=[N+]=NCc1ccccc1C[C@@]1(C(=O)N2CCOCC2)N=C(c2ccc(OCCCO)cc2)O[C@@H]1c1ccccc1: midrange
- Cc1ccc(S[C@]2(C(=O)NCC(F)(F)F)CC(=O)N(Cc3ccccc3C(F)(F)F)[C@@H]2c2ccc(CO)cc2I)cc1: bottom end
